- ASSAY_NOTES: elution rate: rifampicin/tobramycin content remaining on the graft
- Format: in vivo
- CONDITION_NOTES: dog, explanted graft, other: graft implanted end to end in the infrarenal aorta, graft harvested from dog, Implant Duration 7 Days; one line per dog; read-out: Rifampicin Content, Total
QUANTITY_MEASURED: concentration at 7 days (ng/g)
Reply with just the number (in ng/g).

IN: Given the entry "CO[C@H]1/C=C/O[C@@]2(C)Oc3c(C)c(O)c4c(O)c(c(/C=N/N5CCN(C)CC5)c(O)c4c3C2=O)NC(=O)/C(C)=C\C=C\[C@H](C)[C@H](O)[C@@H](C)[C@@H](O)[C@@H](C)[C@H](OC(C)=O)[C@@H]1C" , report its measured concentration at 7 days.
OUT: 890

---

- ASSAY_NOTES: elution rate: rifampicin/tobramycin content remaining on the graft
- Format: in vivo
- CONDITION_NOTES: dog, explanted graft, other: graft implanted end to end in the infrarenal aorta, graft harvested from dog, Implant Duration 21 Days; one line per dog; read-out: Tobramycin Content, 1st Extraction
QUANTITY_MEASURED: concentration at 21 days

IN: Given the entry "NC[C@H]1O[C@H](O[C@H]2[C@H](O)[C@@H](O[C@H]3O[C@H](CO)[C@@H](O)[C@H](N)[C@H]3O)[C@H](N)C[C@@H]2N)[C@H](N)C[C@@H]1O" , report its measured concentration at 21 days.
OUT: < 400 ng/g

---

- ASSAY_NOTES: elution rate: rifampicin/tobramycin content remaining on the graft
- Assay type: in vivo
- CONDITION_NOTES: dog, explanted graft, other: graft implanted end to end in the infrarenal aorta, graft harvested from dog, Implant Duration 7 Days; one line per dog; read-out: Rifampicin Content, 2nd Extraction
QUANTITY_MEASURED: concentration at 7 days

IN: Given the entry "CO[C@H]1/C=C/O[C@@]2(C)Oc3c(C)c(O)c4c(O)c(c(/C=N/N5CCN(C)CC5)c(O)c4c3C2=O)NC(=O)/C(C)=C\C=C\[C@H](C)[C@H](O)[C@@H](C)[C@@H](O)[C@@H](C)[C@H](OC(C)=O)[C@@H]1C" , report its measured concentration at 7 days.
OUT: < 100 ng/g

---

- ASSAY_NOTES: in vivo
- CONDITION_NOTES: dog
QUANTITY_MEASURED: concentration at 21 day

IN: Given the entry "CO[C@H]1/C=C/O[C@@]2(C)Oc3c(C)c(O)c4c(O)c(c(/C=N/N5CCN(C)CC5)c(O)c4c3C2=O)NC(=O)/C(C)=C\C=C\[C@H](C)[C@H](O)[C@@H](C)[C@@H](O)[C@@H](C)[C@H](OC(C)=O)[C@@H]1C" , report its measured concentration at 21 day.
OUT: < 100 ng/mL

IN: Given the entry "NC[C@H]1O[C@H](O[C@H]2[C@H](O)[C@@H](O[C@H]3O[C@H](CO)[C@@H](O)[C@H](N)[C@H]3O)[C@H](N)C[C@@H]2N)[C@H](N)C[C@@H]1O" , report its measured concentration at 21 day.
OUT: < 400 ng/mL

---

- ASSAY_NOTES: elution rate: rifampicin/tobramycin content remaining on the graft
- Assay type: in vivo
- CONDITION_NOTES: dog, explanted graft, other: graft implanted end to end in the infrarenal aorta, graft harvested from dog, Implant Duration 14 Days; one line per dog; read-out: Tobramycin Content, Total
QUANTITY_MEASURED: concentration at 14 days (ng/g)
Reply with just the number (in ng/g).

IN: Given the entry "NC[C@H]1O[C@H](O[C@H]2[C@H](O)[C@@H](O[C@H]3O[C@H](CO)[C@@H](O)[C@H](N)[C@H]3O)[C@H](N)C[C@@H]2N)[C@H](N)C[C@@H]1O" , report its measured concentration at 14 days.
OUT: 510

Source listed as patent US20060246106A1.
